# Tested on: HCT-15 colon
# Test name: NCI-60 one-dose screen, 48 h (100 = growth as untreated, 0 = no growth, -100 = all killed)
# Applied conditions: 10 µM unless noted
Compounds without any hit were thinned out: in the full panel of roughly 83,000, 20% have a hit.
Measurement label: growth (%)

Compound	Observed
CS(=O)(=O)Nc1cc(-c2ccc3ncnc(Nc4cccc(Cl)c4F)c3c2)cnc1Cl	41.9
O=C(Cc1ccc2c(c1)OCCO2)Nc1nc2ccc(F)cc2s1	77.2
COc1cccc(OC)c1C(=O)N[C@@H]1C(=O)N2[C@@H]1SC(C)(C)[C@@H]2C(=O)O	108
CNCCCNc1nc2ccccc2c2c(=O)c3cc(OC)ccc3sc12	57.5
COc1ccc2cc(C(C)C(=O)Nc3ccc(-c4n[nH]c(=S)n4C4CCCCC4)cc3)ccc2c1 (stereo not given)	54.3
